Protocol text: MultiTox-Fluor Cytotoxicity Assay - LYMP1-001 - Dead Cells (AID 946);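 further: cells exposed to compound for 16 h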; further: potency means the concentration at half of the fitted maximal effect
Reported conditions: LYMP1-001 lymphoblastoid cells, dead-cell protease fluorescence; series mostly up to 92.2 µM
Records with an inconclusive call do not appear. Active and inactive are the calls of the source. The call rests on the fitted dose curve; in most records, active means well fitted cell-killing curve with a large enough effect; inconclusive means small, poorly fitted or top-dose-only effect, or effect the other way; inactive means flat fitted curve, though single readings scatter.
Measured endpoint: Potency

Solved cases below.
OCCOc1ccccc1 : inactive
NCC(O)c1ccc(O)cc1 (stereo not drawn) : inactive
CCCC(C)(COC(N)=O)COC(=O)NC(C)C (stereo not drawn) : inactive
Oc1ccccc1-c1ccccc1 : inactive
CNCC(O)c1ccc(O)cc1 (stereo not drawn) : inactive
CC(=O)Oc1ccccc1C(=O)Nc1ncc([N+](=O)[O-])s1 : 39.8 µM (active)
c1ccc2c(c1)Nc1ccccc1S2 : inactive

Let us examine a further case.
Give the measured Potency for Oc1cccc2cccnc12
39.8 µM (active)

---

Protocol text: Identifying Small Molecule Inhibitors of Pancreatic Cancer Stem Cells (SN12C, Adherent) (AID 1259358);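 further: cell survival measured after 48 h of compound exposure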
Reported conditions: viability/growth inhibition; series mostly up to 46.1 µM
Records with an inconclusive call do not appear. Active and inactive are the calls of the source. Calls come from the whole dose curve; as a rule, active = well fitted cell-killing curve with a large enough effect; inconclusive = small, poorly fitted or top-dose-only effect; inactive = flat fitted curve, though single readings scatter.
Use one of these outcomes when replying: active, inactive

Please state the recorded outcome for this compound: Cc1cc(SCc2sc(-c3ccc(C(F)(F)F)c(F)c3)nc2C)ccc1OCC(=O)O
inactive

Please state the recorded outcome for this compound: Cn1cc(C2=C(c3cn(C4CCN(Cc5ccccn5)CC4)c4ccccc34)C(=O)NC2=O)c2ccccc21
inactive

Please state the recorded outcome for this compound: COc1ccc(C(=O)c2c(C)n(CCN3CCOCC3)c3ccccc23)cc1
inactive

Please state the recorded outcome for this compound: C[C@@H]1[C@@H](CC(C[C@H]2O[C@@H]3O[C@]4(C)CC[C@@H]5[C@H](C)CC[C@@H]([C@H]2C)[C@@]35OO4)C[S+](=O)([O-])c2ccc(COC(=O)N(C)C)cc2)O[C@@H]2O[C@]3(C)CC[C@H]4[C@H](C)CC[C@@H]1[C@@]24OO3 (stereo partly specified)
active

Please state the recorded outcome for this compound: Cn1c(CCCC(=O)O)nc2cc(N(CCCl)CCCl)ccc21
inactive

Please state the recorded outcome for this compound: COC[C@H]1OC(=O)c2coc3c2[C@@]1(C)C1=C(C3=O)C2CCC(=O)[C@@]2(C)C[C@H]1OC(C)=O (stereo partly specified)
inactive

---

Test system: CP211
Protocol text: qHTS profiling for inhibitors of Plasmodium falciparum proliferation (AID 504749); further: nearly all actives have a fitted effect of over 60% in size
Reported conditions: P. falciparum in erythrocytes, SYBR Green DNA, 72 h; series mostly up to 28.7 µM
Records with an inconclusive call do not appear. The source made the active and inactive calls. Calls come from the whole dose curve; as a rule, active = well fitted inhibition curve with a large enough effect; inconclusive = small, poorly fitted or top-dose-only effect; inactive = flat fitted curve, though single readings scatter.
Use one of these outcomes when replying: active, inactive

Please state the recorded outcome for this compound: CN(C)CCc1ccc(O)cc1
inactive

Please state the recorded outcome for this compound: Fc1ccc(C(OCCN2CCN(CCCc3ccccc3)CC2)c2ccc(F)cc2)cc1
active

Please state the recorded outcome for this compound: Cc1ncc(CNC(=O)N(CCCl)N=O)c(N)n1
inactive

Please state the recorded outcome for this compound: Cc1ccc(S(=O)(=O)N[C@@H](CCCCN)C(=O)CCl)cc1
inactive

Please state the recorded outcome for this compound: O=P1(NCCCl)OCCCN1CCCl (stereo not given)
inactive

Please state the recorded outcome for this compound: Oc1cccc2cccnc12
inactive

Please state the recorded outcome for this compound: O=C1NCN(c2ccccc2)C12CCN(CC1COc3ccccc3O1)CC2 (stereo not given)
inactive

Please state the recorded outcome for this compound: CC(C)(C)CC(C)(C)c1ccc(O)cc1
inactive

Please state the recorded outcome for this compound: FC(F)(F)c1cccc(C2=CCN(CCc3ccc4ccccc4c3)CC2)c1
inactive

Please state the recorded outcome for this compound: COc1ccc(C(CN(C)C)C2(O)CCCCC2)cc1 (stereo not given)
inactive

Please state the recorded outcome for this compound: CC[N+](CC)(CC)CC
inactive

Please state the recorded outcome for this compound: CN1C(=S)CN=C(c2ccccc2)c2cc(Cl)ccc21
inactive

Please state the recorded outcome for this compound: CC1OC(C)OC(C)O1 (stereo not given)
inactive

Please state the recorded outcome for this compound: Clc1ccc(COC(Cn2ccnc2)c2ccc(Cl)cc2Cl)cc1 (stereo not given)
active

Please state the recorded outcome for this compound: OCCOc1ccccc1
inactive

Please state the recorded outcome for this compound: C=C(C)[C@H]1Cc2c(ccc3c2O[C@@H]2COc4cc(OC)c(OC)cc4[C@@H]2C3=O)O1
inactive

Please state the recorded outcome for this compound: Oc1ccc(Cl)cc1Cc1ccccc1
inactive

Please state the recorded outcome for this compound: c1ccc2c(c1)OCC(C1=NCCN1)O2 (stereo not given)
inactive

Please state the recorded outcome for this compound: CC[N+]1(C)CCCC(OC(=O)C(O)(c2ccccc2)c2ccccc2)C1 (stereo not given)
inactive

Please state the recorded outcome for this compound: CC1NCCOC1c1ccccc1 (stereo not given)
inactive

Please state the recorded outcome for this compound: NCCc1cc(O)c(O)cc1O
inactive

Please state the recorded outcome for this compound: CC(=O)[C@H]1CC[C@H]2[C@@H]3CC[C@H]4C[C@](C)(O)CC[C@]4(C)[C@H]3CC[C@]12C
inactive

Please state the recorded outcome for this compound: CCN(CC)CCOC(=O)C(O)(c1ccccc1)c1ccccc1
inactive

Please state the recorded outcome for this compound: Cn1c(CCCC(=O)O)nc2cc(N(CCCl)CCCl)ccc21
inactive

Please state the recorded outcome for this compound: c1ccc(C2CC2)c(OCC2=NCCN2)c1
inactive

Please state the recorded outcome for this compound: C[C@]12C/C(=C/O)C(=O)C[C@@H]1CC[C@@H]1[C@@H]2CC[C@@]2(C)[C@H]1CC[C@]2(C)O
inactive

Please state the recorded outcome for this compound: C=C1CC[C@@]2(O)[C@H]3Cc4ccc(O)c5c4[C@@]2(CCN3CC2CC2)[C@H]1O5
inactive

Please state the recorded outcome for this compound: O=C(O)c1ccc2[nH]cc(CCCCN3CC=C(c4ccccc4)CC3)c2c1
inactive

Please state the recorded outcome for this compound: CC(=O)Nc1cc([As](=O)(O)O)ccc1O
inactive

Please state the recorded outcome for this compound: CC(C)(C)NCC(O)c1cc(Cl)c(N)c(Cl)c1 (stereo not given)
inactive

Please state the recorded outcome for this compound: CN1CCN(C(=O)O[C@H]2c3nccnc3C(=O)N2c2ccc(Cl)cn2)CC1
inactive

Please state the recorded outcome for this compound: O=C(NC(O)C(Cl)(Cl)Cl)NC(O)C(Cl)(Cl)Cl (stereo not given)
inactive

Please state the recorded outcome for this compound: CN1C[C@H](CNC(=O)OCc2ccccc2)C[C@@H]2c3cccc4c3c(cn4C)C[C@H]21
active

Please state the recorded outcome for this compound: CCOP(=S)(OCC)Oc1cc(C)nc(C(C)C)n1
inactive

Please state the recorded outcome for this compound: Nc1ccncc1
inactive

---

Protocol text: qHTS of pediatric cancer cell lines to identify multiple opportunities for drug repurposing: Primary screen for BT-37 cells (AID 1347094)
Reported conditions: BT-37 viability, CellTiter-Glo luminescence, 48 h; series mostly up to 57.3 µM
Description: Drug repurposing or repositioning has been offered as a strategy for drug development in oncology programs. This approach has special potential for childhood cancers and other rare or orphan diseases, where the expected return on new drug development has been a disincentive to pharmaceuticals. […] We employed a titration-based paradigm (quantitative high-throughput screening or qHTS), where all compounds were tested at multiple concentrations for their effect on cell viability. […]
Results filed as inconclusive are left out. Active and inactive are the calls of the source. Calls follow the shape of the dose curve; as a rule, active = well fitted cell-killing curve with a large enough effect; inconclusive = small, poorly fitted or top-dose-only effect; inactive = flat fitted curve, though single readings scatter.
Use one of these outcomes when replying: True = active, False = inactive

Please state the recorded outcome for this molecule: CC(C)CC(N(C)C)C1(c2ccc(Cl)cc2)CCC1 (stereo not drawn)
False

Please state the recorded outcome for this molecule: c1ccc2c(c1)Nc1ccccc1S2
False

Please state the recorded outcome for this molecule: CC(=O)[C@H]1CC[C@H]2[C@@H]3CC[C@H]4C[C@](C)(O)CC[C@]4(C)[C@H]3CC[C@]12C
False

Please state the recorded outcome for this molecule: Nc1ccncc1
False

Please state the recorded outcome for this molecule: COc1ccc(C(CN(C)C)C2(O)CCCCC2)cc1 (stereo not drawn)
False

Please state the recorded outcome for this molecule: CCN(CC)C(=O)N[C@@H]1C=C2c3cccc4[nH]cc(c34)C[C@@H]2N(C)C1
False

Please state the recorded outcome for this molecule: C[C@H]1O[C@@H](O[C@H]2[C@@H](O)C[C@H](O[C@H]3[C@@H](O)C[C@H](O[C@H]4CC[C@@]5(C)[C@H](CC[C@@H]6[C@@H]5CC[C@]5(C)[C@@H](C7=CC(=O)OC7)CC[C@]65O)C4)O[C@@H]3C)O[C@@H]2C)C[C@H](O)[C@@H]1O
True

Please state the recorded outcome for this molecule: CC(C)=CCOc1c2occc2cc2ccc(=O)oc12
False

Please state the recorded outcome for this molecule: CNCC(O)c1ccc(O)cc1 (stereo not drawn)
False

Please state the recorded outcome for this molecule: c1ccc(C2CC2)c(OCC2=NCCN2)c1
False

Please state the recorded outcome for this molecule: CN(C)CCc1ccc(O)cc1
False

Please state the recorded outcome for this molecule: O=C(NC(O)C(Cl)(Cl)Cl)NC(O)C(Cl)(Cl)Cl (stereo not drawn)
False

Please state the recorded outcome for this molecule: NCC1(CC(=O)O)CCCCC1
False

Please state the recorded outcome for this molecule: CC(C)NCC(O)c1ccccc1Cl (stereo not drawn)
False

Please state the recorded outcome for this molecule: CCC(C(N)=O)N1CCCC1=O (stereo not drawn)
False

Please state the recorded outcome for this molecule: COc1ccccc1N1CCNCC1
False

Please state the recorded outcome for this molecule: NN=C(N)N
False

Please state the recorded outcome for this molecule: CC1=C2C[C@@H]3[C@@H](CC=C4C[C@@H](O)CC[C@@]43C)[C@@H]2CC[C@]12O[C@H]1C[C@H](C)CN[C@H]1[C@H]2C
False

Please state the recorded outcome for this molecule: CC1OC(C)OC(C)O1 (stereo not drawn)
False

Please state the recorded outcome for this molecule: C=CCN1CC[C@]23c4c5ccc(O)c4O[C@H]2C(=O)CC[C@@]3(O)[C@H]1C5
False

Please state the recorded outcome for this molecule: O=c1[nH]c2ccccc2n1CCCN1CCC(n2c(=O)[nH]c3cc(Cl)ccc32)CC1
False

Please state the recorded outcome for this molecule: Cc1sc2c(c1C)C(c1ccc(Cl)cc1)=N[C@@H](CC(=O)OC(C)(C)C)c1nnc(C)n1-2
True

Please state the recorded outcome for this molecule: COc1ccc2c(c1OC)CN1CCc3cc4c(cc3C1C2)OCO4 (stereo not drawn)
True
